Assay: Stability in human liver microsomes assessed as parent compound remaining measured after 60 mins
Format: ADME, Microsome
Conditions: read-out: Stability

{"molecule": "Cc1cc(-c2c[nH]c3ncc(-c4ccc(C5CCN(C6CN(c7ccc8c(c7)C(=O)N(C7CCC(=O)NC7=O)C8=O)C6)CC5)cc4)nc23)ccc1C(=O)N(C)C (stereo unspecified)", "remaining at 1 h / %": 94.5}

###

Target: Protein cereblon/Mitogen-activated protein kinase kinase kinase kinase 1 (Homo sapiens, UniProt Q92918+Q96SW2)
Sequence (Q92918 whole entry, looked up): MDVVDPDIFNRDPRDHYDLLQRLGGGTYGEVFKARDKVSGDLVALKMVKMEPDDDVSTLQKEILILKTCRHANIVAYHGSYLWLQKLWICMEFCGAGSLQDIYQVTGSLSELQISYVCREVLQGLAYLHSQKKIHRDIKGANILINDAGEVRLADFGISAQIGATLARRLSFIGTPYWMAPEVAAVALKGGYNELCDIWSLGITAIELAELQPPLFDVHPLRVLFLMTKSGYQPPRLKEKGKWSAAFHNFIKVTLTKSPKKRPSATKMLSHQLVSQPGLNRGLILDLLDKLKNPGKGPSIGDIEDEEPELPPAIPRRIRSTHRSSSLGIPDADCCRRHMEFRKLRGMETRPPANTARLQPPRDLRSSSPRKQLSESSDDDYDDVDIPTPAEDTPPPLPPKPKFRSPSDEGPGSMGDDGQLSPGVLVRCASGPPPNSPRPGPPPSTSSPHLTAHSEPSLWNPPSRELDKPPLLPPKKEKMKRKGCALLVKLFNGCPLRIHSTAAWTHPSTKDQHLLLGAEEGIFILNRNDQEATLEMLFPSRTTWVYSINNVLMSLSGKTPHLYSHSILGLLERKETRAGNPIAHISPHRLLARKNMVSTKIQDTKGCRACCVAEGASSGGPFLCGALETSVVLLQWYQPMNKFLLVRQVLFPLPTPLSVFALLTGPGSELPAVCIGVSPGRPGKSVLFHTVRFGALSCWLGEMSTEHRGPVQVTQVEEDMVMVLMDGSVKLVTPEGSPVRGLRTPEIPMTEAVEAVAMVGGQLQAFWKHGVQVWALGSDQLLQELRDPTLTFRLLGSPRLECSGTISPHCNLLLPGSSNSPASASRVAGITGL
Sequence (Q96SW2 whole entry, looked up): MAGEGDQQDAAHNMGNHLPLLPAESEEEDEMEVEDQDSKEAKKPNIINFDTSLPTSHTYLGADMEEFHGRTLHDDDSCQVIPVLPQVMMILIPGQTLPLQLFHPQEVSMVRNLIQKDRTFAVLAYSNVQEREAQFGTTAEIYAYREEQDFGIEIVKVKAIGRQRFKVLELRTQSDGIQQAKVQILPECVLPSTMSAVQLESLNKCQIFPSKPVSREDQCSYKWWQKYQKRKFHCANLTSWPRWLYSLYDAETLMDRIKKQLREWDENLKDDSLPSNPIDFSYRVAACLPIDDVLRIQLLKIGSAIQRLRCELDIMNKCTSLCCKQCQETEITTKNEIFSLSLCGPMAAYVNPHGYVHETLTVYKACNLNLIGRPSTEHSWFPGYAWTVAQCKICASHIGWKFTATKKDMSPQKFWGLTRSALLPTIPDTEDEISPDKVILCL
Assay: PROTAC activity at CRBN/HPK1 in human Jurkat cells assessed as maximal degradation of HPK1 protein incubated for 24 hrs by Western blotting analysis relative to control
Format: cell-based

{"compound": "Cc1cc(-c2c[nH]c3ncc(-c4ccc(N5CCN(CCC6CCN(c7ccc8c(c7)C(=O)N(C7CCC(=O)NC7=O)C8=O)CC6)CC5)cc4)nc23)ccc1C(=O)N(C)C (stereo unspecified)", "endpointUnit": "%", "Emax": 48.2}
{"compound": "Cc1cc(-c2c[nH]c3ncc(-c4ccc(C5CCN(CC6CCN(c7ccc8c(c7)C(=O)N(C7CCC(=O)NC7=O)C8=O)C6)CC5)cc4)nc23)ccc1C(=O)N(C)C (stereo unspecified)", "endpointUnit": "%", "Emax": 84.1}
{"compound": "Cc1cc(-c2c[nH]c3ncc(-c4ccc(C5CCN(C6CN(C(=O)C7CCN(c8ccc9c(c8)C(=O)N(C8CCC(=O)NC8=O)C9=O)CC7)C6)CC5)cc4)nc23)ccc1C(=O)N(C)C (stereo unspecified)", "endpointUnit": "%", "Emax": 30.1}
{"compound": "Cc1cc(-c2c[nH]c3ncc(-c4ccc(C5CCN(C6CN(C7CN(c8ccc9c(c8)C(=O)N(C8CCC(=O)NC8=O)C9=O)C7)C6)CC5)cc4)nc23)ccc1C(=O)N(C)C (stereo unspecified)", "endpointUnit": "%", "Emax": 58.1}
{"compound": "Cc1cc(-c2c[nH]c3ncc(-c4ccc(C5CCN(C6CN(C(=O)C7CCN(c8ccc(NC9CCC(=O)NC9=O)cc8)CC7)C6)CC5)cc4)nc23)ccc1C(=O)N(C)C (stereo unspecified)", "endpointUnit": "%", "Emax": 41.4}
{"compound": "Cc1cc(-c2c[nH]c3ncc(-c4ccc(C5CCN(C6CCN(c7ccc8c(c7)C(=O)N(C7CCC(=O)NC7=O)C8=O)C6)CC5)cc4)nc23)ccc1C(=O)N(C)C (stereo unspecified)", "endpointUnit": "%", "Emax": 76.6}
